Sourced from PubChem BioAssay AID2375

- Tested on: Rac1
- Method notes: modulation of active Cdc42 and Rac1 in cells, profiling panel, Ras-related GTPase inhibitor project, cell lysate, ELISA, panel (AID 2375)
- Condition set: NIH 3T3 cells, EGF-stimulated, PAK G-LISA active GTPase, at 10 µM, stronger effect = lower value
Records with an inconclusive call do not appear.
Please use TRUE for normalized active GTPase under 0.7 and FALSE for everything else, ties included.

{"columns": ["Molecule", "Group"],
 "data": [
  ["Cc1cccc(C2CC(c3ccccc3)=NN2c2ccc(S(N)(=O)=O)cc2)c1 (stereo not given)", "FALSE"],
  ["NS(=O)(=O)c1ccc(N2N=C(c3ccccc3)CC2c2ccc(Br)cc2)cc1 (stereo not given)", "TRUE"],
  ["COc1ccc(C2CC(c3ccccc3)=NN2c2ccc(S(N)(=O)=O)cc2)cc1 (stereo not given)", "TRUE"],
  ["Cc1ccc(C2CC(c3ccccc3)=NN2c2ccc(S(N)(=O)=O)cc2)cc1 (stereo not given)", "FALSE"]
]}

###

normalized active GTPase for assorted compounds
- System: Cdc42
- Method notes: modulation of active Cdc42 and Rac1 in cells, profiling panel, Ras-related GTPase inhibitor project, cell lysate, ELISA, panel (AID 2375)
- Condition set: NIH 3T3 cells, EGF-stimulated, PAK G-LISA active GTPase, at 10 µM, stronger effect = lower value
Results filed as inconclusive are left out.
Readout name: normalized active GTPase

{"columns": ["Compound", "Tested on", "Recorded number"],
 "data": [
  ["Cc1ccc(C2CC(c3ccccc3)=NN2c2ccc(S(N)(=O)=O)cc2)cc1 (configuration not stated)", "Cdc42", 0.667],
  ["COc1ccc(C2CC(c3ccccc3)=NN2c2ccc(S(N)(=O)=O)cc2)cc1OC (configuration not stated)", "Cdc42", 0.856],
  ["NS(=O)(=O)c1ccc(N2N=C(c3ccccc3)CC2c2ccc(Br)cc2)cc1 (configuration not stated)", "Cdc42", 0.895],
  ["NS(=O)(=O)c1ccc(N2N=C(c3ccccc3)CC2c2cccc(Br)c2)cc1 (configuration not stated)", "Cdc42", 1.4],
  ["COc1ccc(C2CC(c3ccccc3)=NN2c2ccc(S(N)(=O)=O)cc2)cc1 (configuration not stated)", "Cdc42", 0.626],
  ["COc1ccc(C2CC(c3cccc(OC)c3)=NN2c2ccc(S(N)(=O)=O)cc2)cc1 (configuration not stated)", "Cdc42", 1.25],
  ["Cc1cccc(C2CC(c3ccccc3)=NN2c2ccc(S(N)(=O)=O)cc2)c1 (configuration not stated)", "Cdc42", 0.726]
]}

###

- System: Cdc42
- Method notes: modulation of active Cdc42 and Rac1 in cells, profiling panel, Ras-related GTPase inhibitor project, cell lysate, ELISA, panel (AID 2375)
- Condition set: NIH 3T3 cells, EGF-stimulated, PAK G-LISA active GTPase, active GTPase, at 1 µM, stronger effect = lower value
Inconclusive results are not listed.
normalized active GTPase for assorted compounds
Readout name: normalized active GTPase

{"columns": ["Compound", "Recorded number"],
 "data": [
  ["COc1ccc(C2CC(c3ccccc3)=NN2c2ccc(S(N)(=O)=O)cc2)cc1OC (configuration not stated)", 0.87],
  ["COc1ccc(C2CC(c3ccccc3)=NN2c2ccc(S(N)(=O)=O)cc2)cc1 (configuration not stated)", 0.923],
  ["NS(=O)(=O)c1ccc(N2N=C(c3ccccc3)CC2c2cccc(Br)c2)cc1 (configuration not stated)", 0.764],
  ["Cc1ccc(C2CC(c3ccccc3)=NN2c2ccc(S(N)(=O)=O)cc2)cc1 (configuration not stated)", 0.994],
  ["COc1ccc(C2CC(c3cccc(OC)c3)=NN2c2ccc(S(N)(=O)=O)cc2)cc1 (configuration not stated)", 0.442],
  ["Cc1cccc(C2CC(c3ccccc3)=NN2c2ccc(S(N)(=O)=O)cc2)c1 (configuration not stated)", 0.979],
  ["NS(=O)(=O)c1ccc(N2N=C(c3ccccc3)CC2c2ccc(Br)cc2)cc1 (configuration not stated)", 1.12]
]}
